B1: Far upstream element-binding protein 1, residues 98 to 169; numbered along this chain, Q96AE4 (parent)
chain: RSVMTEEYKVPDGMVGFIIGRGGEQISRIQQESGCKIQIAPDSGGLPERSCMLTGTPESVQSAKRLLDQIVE

# Variants of: B1
# Experiment: abundance fitness (aPCA) (normalised: wild type 0, dead -1); higher = more abundant; growth selection in yeast, the domain comes from the species named
# Settings: Homo sapiens
// abundance fitness lookup, one value per entry

Mutation spec: S43L
abundance fitness: -0.098
--
Mutation spec: T54G
abundance fitness: -0.282
--
Mutation spec: D68E
abundance fitness: -0.023
--
Mutation spec: I29N
abundance fitness: -0.787
--
Mutation spec: L67N
abundance fitness: -0.501
--
Mutation spec: P11W
abundance fitness: -0.185
--
Mutation spec: G13A
abundance fitness: -0.01
--
Mutation spec: G20S
abundance fitness: -0.078
--
Mutation spec: I39Y
abundance fitness: -0.207
--
Mutation spec: K36T
abundance fitness: -0.062
--
Mutation spec: L67I
abundance fitness: 0.008
--
Mutation spec: V15R
abundance fitness: -0.206
--
Mutation spec: D12W
abundance fitness: -0.164
--
Mutation spec: G44S
abundance fitness: -0.003
--
Mutation spec: I39D
abundance fitness: -0.51
--
Mutation spec: R65F
abundance fitness: 0.017
--
Mutation spec: M14C
abundance fitness: -0.011
--
Mutation spec: P57K
abundance fitness: -0.044
--
Mutation spec: L53K
abundance fitness: -0.835
--
Mutation spec: K64V
abundance fitness: -0.09
--
Mutation spec: S59M
abundance fitness: -0.089
--
Mutation spec: Q31D
abundance fitness: 0.034
--
Mutation spec: Q61C
abundance fitness: -0.003
--
Mutation spec: I39C
abundance fitness: -0.109
--
Mutation spec: E32D
abundance fitness: -0.076
--
Mutation spec: E6W
abundance fitness: -0.048
--
Mutation spec: C35P
abundance fitness: -0.986
--
Mutation spec: V71N
abundance fitness: -0.087
--
Mutation spec: G20W
abundance fitness: -0.321
--
Mutation spec: R65D
abundance fitness: -0.043
--
Mutation spec: M52K
abundance fitness: -0.045
--
Mutation spec: L53M
abundance fitness: -0.095
--
Mutation spec: D68K
abundance fitness: -0.001
--
Mutation spec: T5G
abundance fitness: -0.101
--
Mutation spec: G34K
abundance fitness: -0.081
--
Mutation spec: I29R
abundance fitness: -0.876
--
Mutation spec: G22D
abundance fitness: 0.005
--
Mutation spec: P57F
abundance fitness: 0.057
--
Mutation spec: V15Y
abundance fitness: -0.144
--
Mutation spec: P11C
abundance fitness: -0.133
--
Mutation spec: D12E
abundance fitness: 0.001
--
Mutation spec: E24N
abundance fitness: -0.163
--
Mutation spec: V60Y
abundance fitness: -0.781
--
Mutation spec: I18K
abundance fitness: -0.264
--
Mutation spec: M4K
abundance fitness: -0.053
--
Mutation spec: I37D
abundance fitness: -0.873
--
Mutation spec: I26R
abundance fitness: -0.17
--
Mutation spec: S27R
abundance fitness: 0.014
--
Mutation spec: V71F
abundance fitness: -0.065
--
Mutation spec: Q61M
abundance fitness: -0.007
--
Mutation spec: G55P
abundance fitness: -1.13
--
Mutation spec: K9W
abundance fitness: -0.084
--
Mutation spec: R1I
abundance fitness: 0.01
--
Mutation spec: C35N
abundance fitness: -0.955
--
Mutation spec: G13W
abundance fitness: -0.038
--
Mutation spec: G20N
abundance fitness: -0.115
--
Mutation spec: G16A
abundance fitness: -0.023
--
Mutation spec: G55K
abundance fitness: -1.05
--
Mutation spec: Q38W
abundance fitness: -0.049
--
Mutation spec: L53H
abundance fitness: -0.99
--
Mutation spec: Y8K
abundance fitness: -0.127
--
Mutation spec: I37E
abundance fitness: -0.937
--
Mutation spec: T54M
abundance fitness: 0
--
Mutation spec: P11R
abundance fitness: -0.074
--
Mutation spec: Q38T
abundance fitness: -0.027
--
Mutation spec: T56N
abundance fitness: -0.03
--
Mutation spec: L46Q
abundance fitness: -0.001
--
Mutation spec: C51E
abundance fitness: -1
--
Mutation spec: T5R
abundance fitness: -0.012
--
Mutation spec: Q38R
abundance fitness: -0.032
--
Mutation spec: K64R
abundance fitness: -0.015
--
Mutation spec: C51D
abundance fitness: -0.956
--
Mutation spec: C35V
abundance fitness: -0.087
--
Mutation spec: E24H
abundance fitness: 0.026
--
Mutation spec: I39K
abundance fitness: -0.445
--
Mutation spec: E48Q
abundance fitness: -0.085
--
Mutation spec: S59C
abundance fitness: -0.071
--
Mutation spec: P57Q
abundance fitness: 0.033
--
Mutation spec: V71K
abundance fitness: -0.031
--
Mutation spec: S33Q
abundance fitness: -0.431
